Parameter Improved value of relative affinity: see the listing below.
- system under test: T1, human PD-L1 protein (ELISA antigen) (human, UniProt Q9NZQ7 19-238, limits assumed)
- T1 construct: One molecule is used for both ELISAs; also called PD-L1-biotin protein
- T1 sequence (Q9NZQ7 19-238 limits assumed): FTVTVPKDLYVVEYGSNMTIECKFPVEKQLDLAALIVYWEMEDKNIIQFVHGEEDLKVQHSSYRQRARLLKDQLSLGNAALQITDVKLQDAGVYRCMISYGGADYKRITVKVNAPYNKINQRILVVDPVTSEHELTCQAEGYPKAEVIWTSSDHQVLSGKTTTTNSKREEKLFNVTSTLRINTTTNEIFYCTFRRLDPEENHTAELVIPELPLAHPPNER
- assay procedure: relative to original antibody h_Nb2 (SEQ ID NO. 5); ELISA comparison per Example 10

binder | Improved value of relative affinity
h_Nb2_P100R (VHH, also called 95) VHH: DVQLQESGGGLVQPGGSLRLSCAASGFTFGDRWMYWLRQAPGKGLEWVSSINPAGRSTYYADSVKGRFTISRDNAKNTLYLQMNSLKSEDTAVYYCTKDRGGYQKGQGTQVTVSS | 7.21
h_Nb2_G101Y (VHH, also called 92) VHH: DVQLQESGGGLVQPGGSLRLSCAASGFTFGDRWMYWLRQAPGKGLEWVSSINPAGRSTYYADSVKGRFTISRDNAKNTLYLQMNSLKSEDTAVYYCTKDPYGYQKGQGTQVTVSS | 8.48
h_Nb2_F29R (VHH, also called 93) VHH: DVQLQESGGGLVQPGGSLRLSCAASGFTRGDRWMYWLRQAPGKGLEWVSSINPAGRSTYYADSVKGRFTISRDNAKNTLYLQMNSLKSEDTAVYYCTKDPGGYQKGQGTQVTVSS | 1.46
h_Nb2_F29W (VHH, also called 94) VHH: DVQLQESGGGLVQPGGSLRLSCAASGFTWGDRWMYWLRQAPGKGLEWVSSINPAGRSTYYADSVKGRFTISRDNAKNTLYLQMNSLKSEDTAVYYCTKDPGGYQKGQGTQVTVSS | 1.44
